# Test system: CK
# assay-comment: Creatine kinase assay in ERα infected HAECT-1 cells (Table 2)
# Type: cell-based, human
# reported-conditions: Homo sapiens, HAECT1
measurement-kind: pEC50
Give only the number. pEC50 is defined as minus log10 of concentration in molar units.

COC[C@](C#N)(C(=O)N1CCN(c2cnccn2)CC1)[C@H](c1ccccc1OC)c1cccc2ccccc12 [Example 223]
6.50

Documented pEC50 of COC(=O)[C@](C#N)(Cc1cccnc1)[C@@H](c1ccccc1OC)c1cccc2ccccc12 [Example 155] : 8.22

Documented pEC50 of COC(=O)[C@@](C#N)(Cc1ccccn1)[C@H](c1ccccc1OC)c1cccc2ccccc12 (relative stereo) [Example 143] : 7.13

* * *

# Tested on: ER/IL-6
# assay-comment: Endothelial Cell ER/IL-6 Assay, IL-6 promoter luciferase (Table 2)
# Type: cell-based, human
# reported-conditions: Homo sapiens, HAECT1; ERα infected HAECT-1 cells, IL-1β; read-out: IL6 luc IC50
Returns: string. Value is 1 (yes) if measured IC50 is below 100 nM, and 0 (no) if it is greater than or equal to it.

COc1ccccc1[C@H](c1cccc2ccccc12)[C@@](C)(C#N)C(=O)N1CCN(c2cccc(C(F)(F)F)c2)CC1 [Example 136]
1 (yes)
COC(=O)[C@@](C#N)(Cc1ccc(-c2cccc(C(F)(F)F)c2)cc1)[C@H](c1ccccc1OC)c1cccc2ccccc12 (relative stereo) [Example 153]
0 (no)
CCC(=O)C1(c2ccccc2)CCN(C(=O)[C@](C)(C#N)[C@H](c2ccccc2OC)c2cccc3ccccc23)CC1 [Example 194]
0 (no)
COCCN1CCN(C(=O)C(C#N)(COC)C(c2ccccc2OC)c2cccc3ccccc23)CC1 (stereo not shown) [Example 206]
0 (no)
COC[C@](C#N)(C(=O)N1CCN(c2cnccn2)CC1)[C@H](c1ccccc1OC)c1cccc2ccccc12 [Example 223]
1 (yes)
COC(=O)[C@@](C#N)(Cc1ccncc1)[C@H](c1ccccc1OC)c1cccc2ccccc12 (relative stereo) [Example 142]
1 (yes)
COc1ccccc1[C@H](c1cccc2ccccc12)[C@@](C)(C#N)C(=O)N1CC=C(c2ccc(Br)cc2)CC1 [Example 135]
1 (yes)
COCCOC[C@](C#N)(C(=O)OC)[C@H](c1ccccc1OC)c1cccc2ccccc12 (relative stereo) [Example 144]
1 (yes)

Ask: Is the reported IC50 for COC[C@@](C#N)(C(=O)N1CCN(c2cnccn2)CC1)[C@@H](c1ccccc1OC)c1cccc2ccccc12 [Example 224] strictly below 100 nM?
Result: 0 (no)

Ask: Is the reported IC50 for COc1ccccc1[C@H](c1cccc2ccccc12)[C@@](C)(C#N)C(=O)N1CCN(C2CCCCC2)CC1 [Example 196] strictly below 100 nM?
Result: 1 (yes)

* * *

# Tested on: IL-6
# assay-comment: IL-6 expression (ELISA) in Ad5-wt-ERα infected HAECT-1 cells (Table 1)
# Type: cell-based, human
# reported-conditions: Homo sapiens, HAECT1; Ad5-wt-ERα infected HAECT-1 cells, IL-1 stimulated; read-out: Interleukin-6 IC50
measurement-kind: IC50 (nM)
// return numeric value only (unit: nM, not printed)

Documented IC50 of COc1ccccc1[C@H](c1cccc2ccccc12)[C@@](C)(C#N)C(=O)N1CCC(c2cccc(C(F)(F)F)c2)CC1 [Example 67] : 35

These entries and their values trace back to patent US20050256132A1.
